- Target Under Test: ΔF508 CFTR (Homo sapiens, UniProt P13569, DEL508-508)
- Sequence (P13569 with tags, fused parts or gaps DEL508-508): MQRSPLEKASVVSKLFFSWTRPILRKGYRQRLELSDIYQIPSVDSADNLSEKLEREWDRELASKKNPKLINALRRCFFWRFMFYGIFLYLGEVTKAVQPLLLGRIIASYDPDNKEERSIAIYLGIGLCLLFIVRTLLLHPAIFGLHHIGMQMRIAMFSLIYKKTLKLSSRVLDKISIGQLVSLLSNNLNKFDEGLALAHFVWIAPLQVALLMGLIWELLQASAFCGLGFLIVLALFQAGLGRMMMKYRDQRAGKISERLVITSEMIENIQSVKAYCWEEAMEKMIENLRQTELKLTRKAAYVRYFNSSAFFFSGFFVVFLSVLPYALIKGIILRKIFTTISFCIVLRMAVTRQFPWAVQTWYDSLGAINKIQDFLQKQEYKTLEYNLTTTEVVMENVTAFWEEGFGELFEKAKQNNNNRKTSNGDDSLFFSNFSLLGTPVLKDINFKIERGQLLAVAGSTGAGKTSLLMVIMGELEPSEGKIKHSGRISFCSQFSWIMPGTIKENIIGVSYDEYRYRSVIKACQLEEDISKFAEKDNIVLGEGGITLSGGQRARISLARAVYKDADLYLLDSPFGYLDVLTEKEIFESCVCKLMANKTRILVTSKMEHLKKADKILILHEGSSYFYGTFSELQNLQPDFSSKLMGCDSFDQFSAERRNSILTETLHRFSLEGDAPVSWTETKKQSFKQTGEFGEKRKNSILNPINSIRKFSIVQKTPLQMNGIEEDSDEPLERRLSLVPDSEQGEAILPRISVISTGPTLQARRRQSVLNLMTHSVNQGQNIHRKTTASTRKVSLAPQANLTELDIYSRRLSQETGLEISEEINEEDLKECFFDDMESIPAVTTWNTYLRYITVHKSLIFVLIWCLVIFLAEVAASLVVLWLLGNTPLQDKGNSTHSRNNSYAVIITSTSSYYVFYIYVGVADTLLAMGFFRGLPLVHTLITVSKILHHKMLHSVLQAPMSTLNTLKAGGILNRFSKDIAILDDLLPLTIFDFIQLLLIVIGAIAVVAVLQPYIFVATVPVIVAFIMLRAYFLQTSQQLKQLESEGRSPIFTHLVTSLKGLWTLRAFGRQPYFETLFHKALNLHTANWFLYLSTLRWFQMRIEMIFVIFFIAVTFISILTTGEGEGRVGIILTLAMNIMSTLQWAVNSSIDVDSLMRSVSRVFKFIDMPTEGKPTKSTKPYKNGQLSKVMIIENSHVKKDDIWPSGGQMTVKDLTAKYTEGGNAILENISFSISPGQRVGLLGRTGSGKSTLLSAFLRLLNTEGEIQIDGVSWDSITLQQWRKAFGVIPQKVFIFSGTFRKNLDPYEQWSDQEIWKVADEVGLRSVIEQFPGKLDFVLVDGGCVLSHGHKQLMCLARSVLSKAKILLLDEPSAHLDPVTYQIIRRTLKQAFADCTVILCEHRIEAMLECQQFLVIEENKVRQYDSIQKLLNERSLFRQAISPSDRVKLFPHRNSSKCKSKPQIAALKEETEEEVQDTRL
- Experimental Protocol: Potentiator activity, YFP halide (iodide) quenching assay in FRT cells expressing ΔF508 CFTR, 27° C. pre-incubation
- Assay type: cell-based
- Parameters: expressed in transfected cells; host or cells: Fischer rat thyroid (FRT) cells
- Condition Label: FRT cells ΔF508 CFTR/YFP, 24 hours at 27° C., compound with forskolin 30 min
pEC50: −log10 of the molar value.
Reported Property: pEC50

CC(C)(C)n1nc(Oc2cccc3c2CCCC3)c2c(N)ncnc21 [compound 209]: < 4.82
CCn1nc(Sc2ccccc2Cl)c2c(N)ncnc21 [compound 227]: < 4.82
CC(C)(C1CC1)n1cc(-c2ccc(Cl)cc2)c2c(N)ncnc21 [compound 351]: > 5.70
CN(C)C(=O)Nc1ncnc2c1c(-c1ccc(Cl)cc1)nn2C(C)(C)C [compound 269]: < 4.82
CC(C)(C)n1nc(Sc2ccccn2)c2c(N)ncnc21 [compound 245]: 5.00 to 5.30

Now for a further compound.
Recorded pEC50 (compound CCn1nc(Sc2cc(F)cc(F)c2)c2c(N)ncnc21 [compound 264] ): 5.30 to 5.70

---

- Target Under Test: ΔF508 CFTR (Homo sapiens, UniProt P13569, DEL508-508)
- Experimental Protocol: Potentiator activity, YFP halide (iodide) quenching assay in FRT cells expressing ΔF508 CFTR, 27° C. pre-incubation
- Type: cell-based
- Design: expressed in transfected cells; host or cells: Fischer rat thyroid (FRT) cells
- Condition Label: FRT cells ΔF508 CFTR/YFP, 24 hours at 27° C., compound with forskolin 30 min
- Description: Fisher rat thyroid (FRT) cells stably expressing ΔF508 CFTR and a halide-sensitive variant of yellow fluorescent protein (YFP) were seeded into microtiter plates and allowed to grow for 24 hours at 37° C. and 5% CO2, as described above. […] Compounds in DMSO solution were pre-diluted into phosphate-buffered saline solution (PBS) containing forskolin. […] After 30 min of incubation at 37° C., the plates were placed in a fluorescence plate reader equipped with a reagent injector. […]
pEC50: −log10 of the molar value.
Reported Property: pEC50

Recorded pEC50 (compound CCn1cc(-c2ccc(Cl)cc2)c2c(NC(=O)C(C)(C)C)ncnc21 [compound 322] ): 5.30 to 5.70

Recorded pEC50 (compound CC(C)(C)n1nc(Sc2ccccc2)c2c(N)ncnc21 [compound 172] ): > 5.70

---

- Target Under Test: ΔF508 CFTR (Homo sapiens, UniProt P13569, DEL508-508)
- Experimental Protocol: Potentiator activity, YFP halide (iodide) quenching assay in FRT cells expressing ΔF508 CFTR, 27° C. pre-incubation
- Type: cell-based
- Design: expressed in transfected cells; host or cells: Fischer rat thyroid (FRT) cells
- Condition Label: FRT cells ΔF508 CFTR/YFP, 24 hours at 27° C., compound with forskolin 30 min
Reported Property: EC50

Worked set:
CCOC(=O)N1CCC(n2nc(-c3ccc(Cl)cc3)c3c(N)ncnc32)CC1: > 15 µM
CC(C)(C)n1nc(Oc2ccccc2)c2c(N)ncnc21: < 2 µM
CCn1nc(-c2ccc(C)cc2)c2c(N)cccc21: > 15 µM
CCn1nc(N(C)c2cccc(Cl)c2)c2c(N)ncnc21: > 15 µM
Nc1ncnc2c1c(Cc1cccc3ccccc13)nn2C1CNC1: > 15 µM
CC(C)(C)OC(=O)n1nc(Sc2cccc(Cl)c2)c2c(N)ncnc21: < 2 µM

Recorded EC50 (compound `CC(C)(C)n1nc(-c2ccc3c(c2)OCO3)c2c(N)ncnc21` ): 2 to 5 µM

Recorded EC50 (compound `Cc1cc(C)cc(Oc2nn(C(C)(C)C)c3ncnc(N)c23)c1` ): < 2 µM
